Would you mind telling me the reported Ratio (-BP/+BP), DF-10000 of each entry?
- measurementTarget: T1, interleukin 18 binding protein (IL-18BP) (UniProt O95998 31-194)
- T1 sequence (looked up): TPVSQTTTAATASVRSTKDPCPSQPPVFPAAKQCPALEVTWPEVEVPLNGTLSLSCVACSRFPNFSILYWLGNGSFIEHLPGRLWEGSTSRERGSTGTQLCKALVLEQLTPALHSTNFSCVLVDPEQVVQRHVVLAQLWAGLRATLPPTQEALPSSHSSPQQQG
- testDetails: cell-based or functional assay
One number for each entry.

These solved cases illustrate the format of a correct answer.
| binder | Ratio (-BP/+BP), DF-10000 |
| --- | --- |
| IL-18 variant T34M, S36T, D37E, D40T, N41M, K53T, S55W (ligand) YFGKLESKLSVIRNLNDQVLFIDQGNRPLFEDMMDTEMRTMAPRTIFIISMYTDWQPRGMAVTISVKSEKISTLSSENKIISFKEMNPPDNIKDTKSDIIFFQRSVPGHDNKMQFESSSYEGYFLASEKERDLFKLILKKEDELGDRSIMFTVQNED | 2.13 |
| IL-18 variant K53D, S55N, H109I (ligand) YFGKLESKLSVIRNLNDQVLFIDQGNRPLFEDMTDSDMRDNAPRTIFIISMYDDNQPRGMAVTISVKSEKISTLSSENKIISFKEMNPPDNIKDTKSDIIFFQRSVPGIDNKMQFESSSYEGYFLASEKERDLFKLILKKEDELGDRSIMFTVQNED | 1.28 |

Now look at this one.
What value of Ratio (-BP/+BP), DF-10000 has been reported for the following binder? IL-18 variant K53D, S55Q, P107M (ligand) YFGKLESKLSVIRNLNDQVLFIDQGNRPLFEDMTDSDMRDNAPRTIFIISMYDDQQPRGMAVTISVKSEKISTLSSENKIISFKEMNPPDNIKDTKSDIIFFQRSVMGHDNKMQFESSSYEGYFLASEKERDLFKLILKKEDELGDRSIMFTVQNED
0.85
